All figures here come from patent US10517889B2.

System: human SMAD7 mRNA
Test: Dose-dependent inhibition of human SMAD7 mRNA expression in Hep3B cells (Example 3, Study 1 and 2)
Assay type: cell-based
Details: 740 nM, electroporation, approximately 16 hours, Study 2, relative to untreated control cells
Strand notation (5' to 3'): a small letter for the sugar, then the base; units joined by * are phosphorothioate-linked, units joined directly phosphodiester-linked; [ ] holds rarer units or linkages, { } end groups; capitals alone tell only the bases. k = constrained ethyl (cEt); [5mC] = 5-methylcytosine; d = 2'-deoxy (DNA)
Catalogue of substances with associated % inhibition of SMAD7 mRNA expression
// note: answer is a bare numeric in %

Consider the following illustrative entries.
799543 (kT*k[5mC]*kA*dA*dA*dT*dG*d[5mC]*dA*dT*dG*dA*dG*kT*kT*kA; antisense) [compound 799543] | 13
799429 (antisense k[5mC]*kA*k[5mC]*dA*dA*dG*dT*d[5mC]*dA*d[5mC]*dA*dA*d[5mC]*kT*kG*kG) [compound 799429] | 24
799921 (antisense k[5mC]*kT*kA*dA*dT*dT*dA*dG*dT*dG*dA*d[5mC]*dT*kG*kT*kG) [compound 799921] | 10

Query: Data request, read-out % inhibition of SMAD7 mRNA expression, for 799967 (kG*kA*k[5mC]*dG*dA*dT*dG*dA*dA*dT*d[5mC]*d[5mC]*dT*kG*kG*k[5mC]; antisense) [compound 799967]
Reply: 0

Query: Data request, read-out % inhibition of SMAD7 mRNA expression, for 830170 (antisense kG*k[5mC]*kT*d[5mC]*dT*dG*dT*dT*dT*dG*dG*dA*d[5mC]*kA*kA*kG) [compound 830170]
Reply: 1

Query: Data request, read-out % inhibition of SMAD7 mRNA expression, for 799904 (antisense kA*k[5mC]*kT*d[5mC]*dA*dG*dA*dG*d[5mC]*dA*dG*d[5mC]*dT*k[5mC]*kT*k[5mC]) [compound 799904]
Reply: 3

Query: Data request, read-out % inhibition of SMAD7 mRNA expression, for 799321 (antisense kA*kT*k[5mC]*dT*dG*dG*dA*d[5mC]*dA*dG*dT*d[5mC]*dT*kG*k[5mC]*kT) [compound 799321]
Reply: 0

Query: Data request, read-out % inhibition of SMAD7 mRNA expression, for 798987 (antisense kA*kA*kT*dG*dA*dT*dG*dA*d[5mC]*d[5mC]*dG*d[5mC]*d[5mC]*k[5mC]*k[5mC]*k[5mC]) [compound 798987]
Reply: 0

Query: Data request, read-out % inhibition of SMAD7 mRNA expression, for 799605 (k[5mC]*k[5mC]*kA*dA*dT*dA*dA*dA*dG*dT*dT*d[5mC]*d[5mC]*k[5mC]*kT*kT; antisense) [compound 799605]
Reply: 18

Query: Data request, read-out % inhibition of SMAD7 mRNA expression, for 829762 (antisense k[5mC]*k[5mC]*kT*dT*d[5mC]*dA*dG*dA*dT*d[5mC]*d[5mC]*dG*d[5mC]*k[5mC]*kT*k[5mC]) [compound 829762]
Reply: 27

Query: Data request, read-out % inhibition of SMAD7 mRNA expression, for 829956 (k[5mC]*k[5mC]*kT*dT*dG*dT*d[5mC]*dA*d[5mC]*d[5mC]*d[5mC]*dG*dT*k[5mC]*kT*kG; antisense) [compound 829956]
Reply: 65

Query: Data request, read-out % inhibition of SMAD7 mRNA expression, for 799143 (antisense kT*kG*kG*dG*dT*dT*dA*dT*dG*dA*d[5mC]*dG*dG*kA*k[5mC]*k[5mC]) [compound 799143]
Reply: 87
